Items are presented alongside their recorded Ki.
- test-target: calpain-I isolated from human erythrocytes (Homo sapiens, UniProt P07384)
- Construct: calpain-I—isolated from human erythrocytes
- Sequence (P07384 whole entry): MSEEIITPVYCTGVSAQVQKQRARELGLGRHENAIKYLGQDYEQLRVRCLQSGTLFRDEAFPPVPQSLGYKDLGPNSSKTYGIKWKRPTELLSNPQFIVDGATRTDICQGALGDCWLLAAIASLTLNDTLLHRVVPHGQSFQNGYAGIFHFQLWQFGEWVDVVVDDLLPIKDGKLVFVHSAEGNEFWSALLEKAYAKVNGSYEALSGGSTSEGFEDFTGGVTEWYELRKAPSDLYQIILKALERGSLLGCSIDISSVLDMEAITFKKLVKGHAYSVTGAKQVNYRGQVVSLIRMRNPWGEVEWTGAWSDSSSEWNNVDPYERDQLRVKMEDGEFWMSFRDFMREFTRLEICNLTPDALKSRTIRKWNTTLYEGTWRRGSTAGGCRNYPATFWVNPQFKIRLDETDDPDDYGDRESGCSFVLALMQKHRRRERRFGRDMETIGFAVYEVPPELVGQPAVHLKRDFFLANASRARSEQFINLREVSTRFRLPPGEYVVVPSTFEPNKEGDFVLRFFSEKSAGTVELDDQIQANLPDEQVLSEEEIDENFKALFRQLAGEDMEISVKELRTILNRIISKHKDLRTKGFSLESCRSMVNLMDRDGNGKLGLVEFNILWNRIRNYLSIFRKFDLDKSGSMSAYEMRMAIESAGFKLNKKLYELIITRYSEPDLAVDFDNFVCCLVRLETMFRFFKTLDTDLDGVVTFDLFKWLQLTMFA
- Sequence (P04632 whole entry partner): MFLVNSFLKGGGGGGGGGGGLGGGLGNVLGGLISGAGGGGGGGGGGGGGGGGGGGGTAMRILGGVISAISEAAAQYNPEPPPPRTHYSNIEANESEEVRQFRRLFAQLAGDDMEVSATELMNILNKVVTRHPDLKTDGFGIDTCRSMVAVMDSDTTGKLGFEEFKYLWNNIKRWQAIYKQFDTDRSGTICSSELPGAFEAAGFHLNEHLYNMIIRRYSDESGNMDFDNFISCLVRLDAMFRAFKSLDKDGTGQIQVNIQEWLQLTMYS
- procedure-details: Calpain I kinetic fluorescence enzyme inhibition assay
- assay-context: apparent Ki from IC50 by Cheng-Prussoff; average of 2 to 4 dose-effect plots

{"compound": "COc1ccc(CC(NC(=O)c2cccnc2-n2ccc(-c3ccc(F)cc3OC)n2)C(=O)C(N)=O)cc1 (stereo not drawn)", "Ki": "≤ 0.04 µM"}
{"compound": "CCCCC(NC(=O)c1cccnc1-n1cnc(-c2ccc(C(F)(F)F)cc2)c1)C(=O)C(N)=O.Cl (stereo not drawn) [Example 17, hydrochloride]", "Ki": "≤ 0.04 µM"}
{"compound": "NC(=O)C(=O)C(Cc1ccccc1)NC(=O)c1cccnc1-n1cnc(-c2ccc(N3CCOCC3)cc2)c1 (stereo not drawn)", "Ki": "0.04 to 0.1 µM"}
{"compound": "CCCCC(NC(=O)c1cccnc1-n1ccc(-c2ccc(N(CC)CC)cc2)n1)C(=O)C(N)=O (stereo not drawn)", "Ki": "≤ 0.04 µM"}
{"compound": "NC(=O)C(=O)C(Cc1ccccc1)NC(=O)c1cccnc1-n1ccc(-c2cc(C(F)(F)F)ccc2CN2CCOCC2)n1 (stereo not drawn)", "Ki": "0.04 to 0.1 µM"}
{"compound": "CCCCC(NC(=O)c1cccnc1-n1cnc(-c2ccccc2)c1)C(=O)C(N)=O (stereo not drawn)", "Ki": "≤ 0.04 µM"}
{"compound": "COc1ccc2c(c1)-c1nn(-c3ncccc3C(=O)NC(Cc3ccccc3)C(=O)C(N)=O)cc1CO2 (stereo not drawn)", "Ki": "≤ 0.04 µM"}
{"compound": "NC(=O)C(=O)C(Cc1ccccc1)NC(=O)c1cccnc1-n1ccc(C23CC4CC(CC(C4)C2)C3)n1 (stereo not drawn)", "Ki": "≤ 0.04 µM"}
{"compound": "NC(=O)C(=O)C(CC1CCCCC1)NC(=O)c1cccnc1-n1ccc(-c2ccccc2)n1 (stereo not drawn)", "Ki": "≤ 0.04 µM"}
{"compound": "NC(=O)C(=O)C(Cc1ccccc1)NC(=O)c1cccnc1-n1ccc(-c2ccc3ocnc3c2)n1 (stereo not drawn)", "Ki": "0.04 to 0.1 µM"}
{"compound": "COc1ccc(F)cc1-c1ccn(-c2ncccc2C(=O)NC(Cc2ccccc2)C(=O)C(N)=O)n1 (stereo not drawn)", "Ki": "≤ 0.04 µM"}
{"compound": "COc1ccc(CC(NC(=O)c2cccnc2-n2ccc(-c3cccc4ccccc34)n2)C(=O)C(N)=O)cc1 (stereo not drawn)", "Ki": "≤ 0.04 µM"}
{"compound": "NC(=O)C(=O)C(Cc1ccccc1)NC(=O)c1cccnc1-n1cc(-c2ccccc2)cn1 (stereo not drawn)", "Ki": "≤ 0.04 µM"}
{"compound": "NC(=O)C(=O)C(Cc1cccc(F)c1)NC(=O)c1cccnc1-n1ccc(-c2ccccc2OC(F)(F)F)n1 (stereo not drawn)", "Ki": "0.04 to 0.1 µM"}
{"compound": "Cc1cn(-c2ncccc2C(=O)NC(Cc2ccccc2)C(=O)C(N)=O)nc1-c1ccccc1 (stereo not drawn) [Example 84]", "Ki": "≤ 0.04 µM"}
